Published pIC50 for Potassium voltage-gated channel subfamily KQT member 1 (Homo sapiens), assembled from different documents, is shown next.
- EXPERIMENTAL TARGET: Potassium voltage-gated channel subfamily KQT member 1 (Homo sapiens)
- Sequence (P51787 whole entry): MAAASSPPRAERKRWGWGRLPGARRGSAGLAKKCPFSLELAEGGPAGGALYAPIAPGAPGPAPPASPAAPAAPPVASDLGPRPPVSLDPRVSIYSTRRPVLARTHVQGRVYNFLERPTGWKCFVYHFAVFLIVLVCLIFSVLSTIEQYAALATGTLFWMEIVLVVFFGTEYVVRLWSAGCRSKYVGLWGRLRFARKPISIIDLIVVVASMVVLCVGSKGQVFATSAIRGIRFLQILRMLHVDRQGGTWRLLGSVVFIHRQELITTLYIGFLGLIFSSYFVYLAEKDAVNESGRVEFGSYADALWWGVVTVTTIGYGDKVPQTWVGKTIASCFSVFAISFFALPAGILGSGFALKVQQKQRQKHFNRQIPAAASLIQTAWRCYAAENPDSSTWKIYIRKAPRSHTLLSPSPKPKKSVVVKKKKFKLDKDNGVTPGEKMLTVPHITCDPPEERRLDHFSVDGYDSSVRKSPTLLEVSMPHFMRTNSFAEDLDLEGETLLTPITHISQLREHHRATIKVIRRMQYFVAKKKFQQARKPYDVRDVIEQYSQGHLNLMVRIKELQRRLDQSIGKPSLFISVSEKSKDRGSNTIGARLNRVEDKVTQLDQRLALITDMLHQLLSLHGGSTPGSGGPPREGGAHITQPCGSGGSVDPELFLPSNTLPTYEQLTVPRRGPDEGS
pIC50: −log10 of the molar value.

| STRUCTURE STRING | pIC50 |
| --- | --- |
| FC(F)(F)c1ccc2c(Nc3ccc(Cl)nc3)n[nH]c2c1 | 5.59 |
| NC(=O)C(c1ccccc1)(c1ccc(F)cc1)c1ccc(F)cc1 | < 6.00 |
| Cc1cc(-c2ccc(C(=O)[C@@H]3CCCC[C@H]3C(=O)Nc3cnn(C)c3S(N)(=O)=O)cc2)[nH]n1 | < 4.48 |
| COc1cnc2ccc(=O)n(C[C@H](N)[C@H]3CC[C@H](NCc4ccc5c(n4)NC(=O)CO5)CC3)c2c1 | < 3.48 |
| C[C@@H](C(N)=O)[C@H](N)c1nc2ccc(C(C)(C)C)cc2[nH]1 | < 4.52 |
| N#Cc1ccc(-c2n[nH]c3cc(OC(F)(F)F)ccc23)cc1 | < 5.52 |
| COc1ccc2ncc(=O)n(CCN3CCC(NCc4ccc5c(n4)NC(=O)CO5)CC3)c2c1 | < 4.00 |
